Biological target: NET (Homo sapiens, UniProt P23975)
Construct: SK-N-SH cells expressing NET; host or cells: SK-N-SH
Sequence (P23975 whole entry): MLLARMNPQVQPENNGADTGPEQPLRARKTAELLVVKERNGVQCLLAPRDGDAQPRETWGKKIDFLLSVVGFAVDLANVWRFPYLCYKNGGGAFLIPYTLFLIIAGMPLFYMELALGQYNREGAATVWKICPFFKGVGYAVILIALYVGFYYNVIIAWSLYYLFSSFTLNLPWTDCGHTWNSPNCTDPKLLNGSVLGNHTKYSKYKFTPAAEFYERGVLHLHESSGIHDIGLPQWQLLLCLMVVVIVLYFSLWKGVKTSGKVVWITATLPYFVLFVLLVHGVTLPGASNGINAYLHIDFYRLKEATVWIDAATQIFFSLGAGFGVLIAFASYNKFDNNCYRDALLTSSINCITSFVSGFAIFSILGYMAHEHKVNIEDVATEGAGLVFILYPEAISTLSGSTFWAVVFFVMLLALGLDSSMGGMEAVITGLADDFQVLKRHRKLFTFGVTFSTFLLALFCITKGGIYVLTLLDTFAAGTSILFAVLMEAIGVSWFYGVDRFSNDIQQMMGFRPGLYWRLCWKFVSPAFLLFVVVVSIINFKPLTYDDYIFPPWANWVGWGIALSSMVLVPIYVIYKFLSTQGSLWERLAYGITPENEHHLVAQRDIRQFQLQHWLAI
Assay: Competitive inhibition of 131I-MIBG uptake in SK-N-SH cells expressing NET
Format: cell-based
Settings: non-radioactive compounds, percent of control MIBG uptake
pIC50: −log10 of the molar value.
measured quantity: pIC50

INSERT INTO results (line_notation, tgt, reported) VALUES
  ('N=C(N)NCCc1ccc(OCCCF)c(F)c1', 'NET (Homo sapiens, UniProt P23975)', 5.59);

Origin of values: patent US12285501B2
